Measurement record for Nocardia Asteroides ATCC9970; quantity recorded: MIC.
Numbers only, in µg/mL.

The value of MIC measured for the molecule CC[C@H]1OC(=O)[C@H](C)C(=O)[C@H](C)[C@@H](O[C@@H]2O[C@H](C)C[C@H](N(C)C)[C@H]2O)[C@](C)(OC/C=C/c2cncc(-c3ncccn3)c2)C[C@@H](C)C(=O)[C@H](C)[C@H]2NC(=O)O[C@@]21C [Example 46] turned out to be 0.05

We now examine a further molecule.
The value of MIC measured for the molecule CC[C@H]1OC(=O)[C@H](C)C(=O)[C@H](C)[C@@H](O[C@@H]2O[C@H](C)C[C@H](N(C)C)[C@H]2O)[C@](C)(OC/C=C/c2cnc(-c3cncs3)s2)C[C@@H](C)C(=O)[C@H](C)[C@H]2NC(=O)O[C@@]21C [Example 60] turned out to be 0.01

====

Measurement record for Nocardia Asteroides ATCC9970; quantity recorded: MIC.
Give bare numbers, in µg/mL.

The value of MIC measured for the compound CC[C@H]1OC(=O)[C@H](C)C(=O)[C@H](C)[C@@H](O[C@@H]2O[C@H](C)C[C@H](N(C)C)[C@H]2O)[C@](C)(OCC#Cc2ccc(-c3cscn3)s2)C[C@@H](C)C(=O)[C@H](C)[C@H]2NC(=O)O[C@@]21C turned out to be 0.01

We now examine a further compound.
The value of MIC measured for the compound CC[C@H]1OC(=O)[C@H](C)C(=O)[C@H](C)[C@@H](O[C@@H]2O[C@H](C)C[C@H](N(C)C)[C@H]2O)[C@](C)(OCC#Cc2ccc(-c3cccc(Cl)c3)s2)C[C@@H](C)C(=O)[C@H](C)[C@H]2NC(=O)O[C@@]21C turned out to be 0.2

====

Measurement record for Streptococcus Pneumonia 5649; quantity recorded: MIC.
Answers are plain numbers, in µg/mL.

Look over these answered cases.
The value of MIC measured for the compound CC[C@H]1OC(=O)[C@H](C)C(=O)[C@H](C)[C@@H](O[C@@H]2O[C@H](C)C[C@H](N(C)C)[C@H]2O)[C@](C)(OCC#Cc2ccc(-c3cncnc3)s2)C[C@@H](C)C(=O)[C@H](C)[C@H]2NC(=O)O[C@@]21C turned out to be 0.5

The value of MIC measured for the compound CC[C@H]1OC(=O)[C@H](C)C(=O)[C@H](C)[C@@H](O[C@@H]2O[C@H](C)C[C@H](N(C)C)[C@H]2O)[C@](C)(OC/C=C/c2ccc(-c3cnccn3)s2)C[C@@H](C)C(=O)[C@H](C)[C@H]2NC(=O)O[C@@]21C turned out to be 0.03

We now examine a further compound.
The value of MIC measured for the compound CC[C@H]1OC(=O)[C@H](C)C(=O)[C@H](C)[C@@H](O[C@@H]2O[C@H](C)C[C@H](N(C)C)[C@H]2O)[C@](C)(OC/C=C/c2ccc(-c3ccco3)s2)C[C@@H](C)C(=O)[C@H](C)[C@H]2NC(=O)O[C@@]21C turned out to be 0.25

====

Give MIC for every item shown.
Test system: Escherichia coli DC-2

Look over these answered cases.
The value of MIC measured for the compound CC[C@H]1OC(=O)[C@H](C)C(=O)[C@H](C)[C@@H](O[C@@H]2O[C@H](C)C[C@H](N(C)C)[C@H]2O)[C@](C)(OC/C=C/c2cncc(-c3ccco3)c2)C[C@@H](C)C(=O)[C@H](C)[C@H]2NC(=O)O[C@@]21C turned out to be 50 mg/L

The value of MIC measured for the compound CC[C@H]1OC(=O)[C@H](C)C(=O)[C@H](C)[C@@H](O[C@@H]2O[C@H](C)C[C@H](N(C)C)[C@H]2O)[C@](C)(OC/C=C/c2ccc(-c3cccc(F)c3)s2)C[C@@H](C)C(=O)[C@H](C)[C@H]2NC(=O)O[C@@]21C turned out to be > 100 mg/L

The value of MIC measured for the compound CC[C@H]1OC(=O)[C@H](C)C(=O)[C@H](C)[C@@H](O[C@@H]2O[C@H](C)C[C@H](N(C)C)[C@H]2O)[C@](C)(OCC#Cc2ccc(-c3cccc(F)c3)s2)C[C@@H](C)C(=O)[C@H](C)[C@H]2NC(=O)O[C@@]21C turned out to be > 100 mg/L

We now examine a further compound.
The value of MIC measured for the compound CC[C@H]1OC(=O)[C@H](C)C(=O)[C@H](C)[C@@H](O[C@@H]2O[C@H](C)C[C@H](N(C)C)[C@H]2O)[C@](C)(OC/C=C/c2cncc(-n3ccnc3)c2)C[C@@H](C)C(=O)[C@H](C)[C@H]2NC(=O)O[C@@]21C turned out to be 50 mg/L

meta.source: patent US6054435A
